Numbers sourced from patent US5849890.

Target: hCG beta-subunit (Homo sapiens, UniProt P0DN86 P0DN86:21-165)
Assay: filter
Details: tags: Calbiochem or Vitro Diagnostics; label: 32P

# Binder, Kd
records = [
    ("H-42 (ssRNA, 2'-NH2 all pyrimidines) RNA: GGGAGGACGAUGCGGACAAGGGCCUGAGUGUGGAGGGCACGUGGAGGGGACUGGCCAGACGACUCGCCCGA", "~200 nM"),
]
